Biological target: Cell division cycle 7-related protein kinase (Homo sapiens)
Assay: Inhibition of CDC7 in human Caco2 cells assessed as inhibition of MCM2 phosphorylation at Ser53 after 4 hrs
Assay type: cell-based, Caco-2
pIC50: −log10 of the molar value.
measured.quantity: pIC50

O=c1[nH]c([C@@H]2CCCN2)nc2c1oc1ccc(Cl)cc12 : 6.85

----------
Reported IC50 by item:
Biological target: Cell division cycle 7-related protein kinase (Homo sapiens, UniProt O00311)
Sequence (O00311 whole entry): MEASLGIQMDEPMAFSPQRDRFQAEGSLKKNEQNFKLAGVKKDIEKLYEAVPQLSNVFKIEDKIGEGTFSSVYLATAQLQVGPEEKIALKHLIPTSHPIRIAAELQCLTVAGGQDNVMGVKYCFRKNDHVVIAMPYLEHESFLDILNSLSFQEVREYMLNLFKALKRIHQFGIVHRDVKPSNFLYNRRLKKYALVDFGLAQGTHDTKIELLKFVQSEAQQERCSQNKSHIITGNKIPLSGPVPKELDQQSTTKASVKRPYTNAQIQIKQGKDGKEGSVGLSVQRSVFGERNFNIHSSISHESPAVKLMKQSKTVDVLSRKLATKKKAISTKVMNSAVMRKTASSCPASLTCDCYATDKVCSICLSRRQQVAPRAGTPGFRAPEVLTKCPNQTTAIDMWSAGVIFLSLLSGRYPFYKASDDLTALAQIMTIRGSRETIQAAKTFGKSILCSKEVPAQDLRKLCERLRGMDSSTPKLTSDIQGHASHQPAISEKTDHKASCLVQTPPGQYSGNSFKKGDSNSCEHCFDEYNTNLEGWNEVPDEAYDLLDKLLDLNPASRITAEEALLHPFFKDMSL
Assay: Inhibition of N-terminus Myc-tagged human CDC7 expressed in Escherichia coli by chemiluminescence assay in presence of ATP
measured.quantity: IC50

O=c1[nH]c(CN2CC[C@H](O)C2)nc2c1oc1cc(O)c(Br)cc12 : 1000 nM
O=c1[nH]c([C@@H]2C[C@H](F)CN2)nc2c1oc1ccc(Br)cc12 : 11 nM
O=c1[nH]cnc2c1oc1ccc(Br)cc12 : 2000 nM
O=c1[nH]c(CN2CC[C@H](O)C2)nc2c1oc1ccc(Cl)cc12 : 2200 nM
COc1ccc2oc3c(=O)[nH]c([C@@H]4CCCN4)nc3c2c1 : 6.1 nM
O=c1[nH]c([C@@H]2C[C@@H](F)CN2)nc2c1oc1ccc(Br)cc12 : 3.7 nM

----------
System: Caco-2
Experiment: Induction of apoptosis in human Caco2 cells assessed as increase in caspase 3/7 activity
Format: functional, cell-based
pEC50: −log10 of the molar value.
measured.quantity: pEC50

O=c1[nH]c([C@@H]2CCCN2)nc2c1oc1ccc(Cl)cc12 : 5.64

----------
Assay: Drug uptake in tumor of Caco2 cells xenografted athymic nude mouse at 10 mg/kg, po measured after 4 hrs
Assay type: ADME, organism-based, Neoplasm, Caco-2
Parameters: dose 10 mg/kg, route oral
Conditions: read-out: Drug uptake
measured.quantity: concentration at 4 h

O=c1[nH]c([C@@H]2CCCN2)nc2c1oc1ccc(Cl)cc12 : 13.1 µM

----------
Experiment: Oral bioavailability in rat at 3 mg/kg
Assay type: ADME, organism-based
Conditions: in vivo
measured.quantity: bioavailability (%)

O=c1[nH]c([C@@H]2CCCN2)nc2c1oc1ccc(Cl)cc12 : 95

----------
Assay: Plasma concentration in athymic nude mouse bearing human Caco2 cells at 3 mg/kg, po measured after 4 hrs
Type: ADME, organism-based, Caco-2
Design: dose 3 mg/kg, route oral
measured.quantity: concentration at 4 h (µM)

O=c1[nH]c([C@@H]2CCCN2)nc2c1oc1ccc(Cl)cc12 : 11

----------
Molecular target: Cell division cycle 7-related protein kinase (Homo sapiens)
Assay: Inhibition of N-terminus Myc-tagged human CDC7 expressed in Escherichia coli by chemiluminescence assay in presence of ATP
Simple rule here: IC50 less than 10 nM is true, otherwise false.

O=c1[nH]c(C2CCNCC2)nc2c1oc1ccc(Br)cc12 : true
CO[C@H]1CCN(Cc2nc3c(oc4ccc(Br)cc43)c(=O)[nH]2)C1 : false
O=C(O)C1CCN(Cc2nc3c(oc4ccc(Br)cc43)c(=O)[nH]2)C1 (racemic) : false
COc1ccc2oc3c(=O)[nH]c(CN4CC[C@H](O)C4)nc3c2c1 : false
O=c1[nH]c(CN2CC[C@H](O)C2)nc2c1oc1ccc3c(c12)OCO3 : false

----------
Assay: Drug uptake in tumor of Caco2 cells xenografted athymic nude mouse at 100 mg/kg, po measured after 4 hrs
Assay type: ADME, organism-based, Neoplasm, Caco-2
Set-up: dose 100 mg/kg, route oral
Settings: read-out: Drug uptake
measured.quantity: concentration at 4 h (µM)

O=c1[nH]c([C@@H]2CCCN2)nc2c1oc1ccc(Cl)cc12 : 71.4

----------
Experiment: Plasma concentration in mouse at 100 mg/kg, po measured after 1 hr
Format: ADME, organism-based
Set-up: dose 100 mg/kg, route oral
Simple rule here: concentration at 1 h less than 1 µM is 1 (yes), otherwise 0 (no).

O=c1[nH]c(CN2CC[C@H](O)C2)nc2c1oc1ccc(Br)cc12 : 0 (no)
O=c1[nH]c([C@@H]2CCCN2)nc2c1oc1ccc(Br)cc12 : 0 (no)
Cc1cc(-c2cc(-c3ccccc3)nc(=O)[nH]2)ccc1O : 1 (yes)
O=c1[nH]c([C@@H]2CCCN2)nc2c1oc1ccc(Cl)cc12 : 0 (no)
O=c1[nH]c([C@@H]2C[C@@H](F)CN2)nc2c1oc1ccc(Br)cc12 : 0 (no)
O=c1[nH]c(CN2CC[C@H](O)C2)nc2c1oc1cc(O)c(Br)cc12 : 0 (no)

----------
Test: Drug uptake in tumor of Caco2 cells xenografted athymic nude mouse at 30 mg/kg, po measured after 4 hrs
Assay type: ADME, organism-based, Neoplasm, Caco-2
Parameters: dose 30 mg/kg, route oral
Settings: read-out: Drug uptake
measured.quantity: concentration at 4 h (µM)

O=c1[nH]c([C@@H]2CCCN2)nc2c1oc1ccc(Cl)cc12 : 32.1

----------
Experiment: Plasma concentration in mouse at 100 mg/kg, po measured after 4 hrs
Type: ADME, organism-based
Set-up: dose 100 mg/kg, route oral
Classification field: t = concentration at 4 h at or over 50 µM; f = concentration at 4 h under 50 µM.

Cc1cc(-c2cc(-c3ccccc3)nc(=O)[nH]2)ccc1O : f
O=c1[nH]c(CN2CC[C@H](O)C2)nc2c1oc1cc(O)c(Br)cc12 : f
O=c1[nH]c([C@@H]2CCCN2)nc2c1oc1ccc(Cl)cc12 : t
O=c1[nH]c([C@@H]2C[C@@H](F)CN2)nc2c1oc1ccc(Br)cc12 : f
O=c1[nH]c([C@@H]2CCCN2)nc2c1oc1ccc(Br)cc12 : t

----------
Reported IC50 by item:
Target: Cell division cycle 7-related protein kinase (Homo sapiens)
Test: Inhibition of N-terminus Myc-tagged human CDC7 expressed in Escherichia coli by chemiluminescence assay in presence of ATP
measured.quantity: IC50 (nM)

O=c1[nH]c([C@@H]2CCCN2)nc2c1oc1ccc(Cl)cc12 : 3.4
O=c1[nH]c(C2CNC2)nc2c1oc1ccc(Br)cc12 : 7.7
O=c1[nH]c(C2CCCNC2)nc2c1oc1ccc(Br)cc12 (racemic) : 15
CC(N)c1nc2c(oc3ccc(Br)cc32)c(=O)[nH]1 (racemic) : 7.9
O=c1[nH]c([C@@H]2CCCN2)nc2c1oc1ccc(Br)cc12 : 4.8
COc1ccc2oc3c(=O)[nH]c([C@@H]4C[C@@H](F)CN4)nc3c2c1 : 3.9
O=c1[nH]c([C@@H]2C[C@@H](F)CN2)nc2c1oc1ccc(Cl)cc12 : 4
CN1CCC[C@H]1c1nc2c(oc3ccc(Br)cc32)c(=O)[nH]1 : 7.3
O=c1[nH]c([C@H]2CCCN2)nc2c1oc1ccc(Br)cc12 : 70
O=c1[nH]c([C@@H]2C[C@@H](O)CN2)nc2c1oc1ccc(Br)cc12 : 9.1

----------
Assay: Plasma concentration in athymic nude mouse bearing human Caco2 cells at 30 mg/kg, po measured after 4 hrs
Type: ADME, organism-based, Caco-2
Design: dose 30 mg/kg, route oral
measured.quantity: concentration at 4 h (µM)

O=c1[nH]c([C@@H]2CCCN2)nc2c1oc1ccc(Cl)cc12 : 82.2

----------
Reported IC50 by item:
Target: Casein kinase II alpha/beta (Homo sapiens, UniProt P68400)
Sequence (P67870 whole entry): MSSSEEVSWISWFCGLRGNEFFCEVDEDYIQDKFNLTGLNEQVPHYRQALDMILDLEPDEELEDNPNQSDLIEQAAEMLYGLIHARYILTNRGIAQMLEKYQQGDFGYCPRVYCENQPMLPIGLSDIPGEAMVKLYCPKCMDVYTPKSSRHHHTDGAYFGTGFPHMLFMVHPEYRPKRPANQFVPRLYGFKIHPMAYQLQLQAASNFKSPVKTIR
Sequence (P68400 whole entry): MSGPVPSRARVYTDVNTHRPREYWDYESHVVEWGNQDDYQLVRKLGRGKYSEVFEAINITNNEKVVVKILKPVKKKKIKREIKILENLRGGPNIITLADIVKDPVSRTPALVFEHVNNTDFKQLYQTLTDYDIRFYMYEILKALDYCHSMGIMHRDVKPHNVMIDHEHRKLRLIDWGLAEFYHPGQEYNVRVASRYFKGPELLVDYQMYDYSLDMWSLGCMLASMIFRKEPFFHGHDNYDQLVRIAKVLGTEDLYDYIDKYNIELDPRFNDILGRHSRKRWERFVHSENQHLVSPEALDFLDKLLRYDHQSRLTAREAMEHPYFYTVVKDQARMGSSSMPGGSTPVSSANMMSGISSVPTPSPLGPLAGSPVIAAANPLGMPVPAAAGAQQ
Experiment: Inhibition of human tertrameric CK2alphabeta holoenzyme using casein as substrate after 1 to 2 hrs by chemiluminescence assay in presence of 2 uM ATP
measured.quantity: IC50 (nM)

O=c1[nH]c(C2CNC2)nc2c1oc1ccc(Br)cc12 : 43
O=c1[nH]c(C2CCNCC2)nc2c1oc1ccc(Br)cc12 : 50
O=c1[nH]c([C@@H]2C[C@@H](O)CN2)nc2c1oc1ccc(Br)cc12 : 418
O=c1[nH]c([C@@H]2C[C@@H](F)CN2)nc2c1oc1ccc(Br)cc12 : 238
COc1ccc2oc3c(=O)[nH]c([C@@H]4C[C@@H](F)CN4)nc3c2c1 : 733
CO[C@H]1CCN(Cc2nc3c(oc4ccc(Br)cc43)c(=O)[nH]2)C1 : 512
CN1CCC[C@H]1c1nc2c(oc3ccc(Br)cc32)c(=O)[nH]1 : 63
CC(N)c1nc2c(oc3ccc(Br)cc32)c(=O)[nH]1 (racemic) : 757
O=c1[nH]cnc2c1oc1ccc(Br)cc12 : 1500
O=c1[nH]c([C@@H]2C[C@H](F)CN2)nc2c1oc1ccc(Br)cc12 : 3620
O=c1[nH]c(C2CCCNC2)nc2c1oc1ccc(Br)cc12 (racemic) : 175
O=C(O)C1CCN(Cc2nc3c(oc4ccc(Br)cc43)c(=O)[nH]2)C1 (racemic) : 49
O=c1[nH]c([C@H]2CCCN2)nc2c1oc1ccc(Br)cc12 : 1510
COc1ccc2oc3c(=O)[nH]c([C@@H]4CCCN4)nc3c2c1 : 238
O=c1[nH]c([C@@H]2CCCN2)nc2c1oc1ccc(Br)cc12 : 91
O=c1[nH]c([C@@H]2C[C@@H](F)CN2)nc2c1oc1ccc(Cl)cc12 : 752
O=c1[nH]c([C@@H]2CCCN2)nc2c1oc1ccc(Cl)cc12 : 215
